test: qHTS of small molecules that selectively kill Giardia lamblia: Hit Validation.;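 also: viability measured as ATP content by luminescence so killing lowers signal; trophozoites exposed to compounds for 48 h anaerobically at 37 °C; nearly all actives have a fitted effect of over 65% in size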; settings: Giardia lamblia trophozoite viability, dose-response; series mostly up to 38.3 µM
In all, about 1,300 compounds went through this assay and about 1,000 (77%) were called active. Inconclusive results (about 7%) are left out. Calls follow the shape of the dose curve; as a rule, active = well fitted inhibition curve with a large enough effect; inconclusive = small, poorly fitted or top-dose-only effect; inactive = no such curve, though single readings can be large or run the other way. So high a share suggests a set chosen from earlier hits. The list shows a part of the results.
Respond only with the outcome that fits, drawn from 1 (yes) = active, 0 (no) = inactive

The following molecules have reported results that may help.
Cc1c(N=Nc2ccc(O)cc2)c(=O)n(-c2ccccc2)n1C | 1 (yes)
O=C(Nc1cccc(Cl)c1N1CCOCC1)c1ccc([N+](=O)[O-])o1 | 1 (yes)
O=c1cc(-c2ccccc2)[nH]c2cc(Cl)ccc12 | 0 (no)
CC(C)C(=O)N1CCN(c2ccccc2NC(=O)c2ccc([N+](=O)[O-])o2)CC1 | 1 (yes)
Cc1c(NC2(C#N)CCCC2)c(=O)n(-c2ccccc2)n1C | 0 (no)

Query: Could you check what this test reported for Cc1cc(N2CCN(C)CC2)nc2ccc(NC(=S)N3CCN(c4ccc(F)cc4)CC3)cc12 ?
Response: 1 (yes)

Query: Ok, now Cc1cc(N)ccc1N=Nc1c(C)n(C)n(-c2ccccc2)c1=O
Response: 1 (yes)

Query: Ok, now COc1cc(N=Nc2c(C)n(C)n(-c3ccccc3)c2=O)ccc1N
Response: 1 (yes)

Query: Ok, now O=Nc1c2ccc[nH]c-2c2ccc([N+](=O)[O-])cc12
Response: 1 (yes)

Query: Ok, now O=C(Cc1csc(Nc2nc(=S)[nH]c3ccccc23)n1)NCCCN1CCN(c2ccccc2F)CC1
Response: 1 (yes)

Query: Ok, now Cc1c[nH]c(=O)c([N+](=O)[O-])c1
Response: 1 (yes)

Query: Ok, now O=C(Nc1ccccc1N1CCOCC1)c1ccc([N+](=O)[O-])o1
Response: 1 (yes)

Query: Ok, now c1ccc2nc3c(cc2c1)CCCC3
Response: 1 (yes)

Query: Ok, now O=c1sc(N2CCN(c3ccc(F)cc3)CC2)nc2ccsc12
Response: 0 (no)

Query: Ok, now CN(C)C(=O)CCc1ccc2c3c([nH]c2c1)[C@]1(CCC2CCCC2)[C@@H](C(=O)N2CCOCC2)C[C@H](CC(=O)NCCN2CCOCC2)C(=O)N1CC3
Response: 0 (no)

Query: Ok, now O=C(CC12CC3CC(CC(C3)C1)C2)N/N=C/c1ccc([N+](=O)[O-])o1
Response: 1 (yes)

Query: Ok, now O=[N+]([O-])c1ccc(NCc2ccccc2N2CCC(CO)CC2)nc1
Response: 1 (yes)

Query: Ok, now Cc1cccc(N2CCN(C(=S)Nc3ccc4nc(N5CCN(C)CC5)cc(C)c4c3)CC2C)c1 (configuration not stated)
Response: 1 (yes)

Query: Ok, now CC(NC(=O)C12CC3CC(CC(C3)C1)C2)C(=O)NN=Cc1ccc([N+](=O)[O-])o1 (configuration not stated)
Response: 1 (yes)

Query: Ok, now Cc1ccc(CN=c2c([N+](=O)[O-])nn(-c3ccc4c(c3)OCCO4)n2O)cc1
Response: 1 (yes)

Query: Ok, now CC(=O)OCON[N+]([O-])=NC(C)C
Response: 1 (yes)

Query: Ok, now Cn1nc(N)c2c(-c3ccc(Cl)cc3)c(C#N)c(N)nc21
Response: 1 (yes)
